- target: HIV-1 YU2 gp120 (HIV-1 YU2, UniProt P35961 32-498)
- protocol_details: SPR

binder	unit_abbrev	Kd
MVN_G43E/G85Q (natural protein) MPNFSHTCSSINYDPDSTILSAECQARDGEWLPTELRLSDHIENIDGELQFGDQNFQETCQDCHLEFGDGEQSVWLVCTCQTMDQEWKSTQILLDSQIDNNDSQLEIG	nM	180
MVN_Q81K (natural protein) MPNFSHTCSSINYDPDSTILSAECQARDGEWLPTELRLSDHIGNIDGELQFGDQNFQETCQDCHLEFGDGEQSVWLVCTCKTMDGEWKSTQILLDSQIDNNDSQLEIG	nM	45
MVN_Q81K/G85Q (natural protein) MPNFSHTCSSINYDPDSTILSAECQARDGEWLPTELRLSDHIGNIDGELQFGDQNFQETCQDCHLEFGDGEQSVWLVCTCKTMDQEWKSTQILLDSQIDNNDSQLEIG	nM	101
MVN_G43E/Q81K/M83R/G85Q (natural protein) MPNFSHTCSSINYDPDSTILSAECQARDGEWLPTELRLSDHIENIDGELQFGDQNFQETCQDCHLEFGDGEQSVWLVCTCKTRDQEWKSTQILLDSQIDNNDSQLEIG	nM	100
